# System: HCT-116 colon
# assay-name: NCI-60 one-dose screen, 48 h (100 = growth as untreated, 0 = no growth, -100 = all killed)
# measurement-setup: 10 µM unless noted
Compounds without any hit were thinned out: in the full panel of roughly 83,000, 20% have a hit.
result-type: growth (%)

# compound, result-type, numeric-result
data = [
    ("COc1ccc(C(=O)n2nc(/C=C/c3ccc(O)c(OC)c3)cc2/C=C/c2ccc(O)c(OC)c2)cc1", "growth", -0.661),
    ("CCN(CC)c1ccc(C(=N)c2ccc(N(CC)CC)cc2)cc1", "growth", -60.1),
    ("C=C(C)[C@@H]1C[C@H](O)Cc2cc(F)ccc2N1", "growth", 92.9),
    ("COc1ccc(/C=C2\\CN(Cc3cn(CCNc4ccnc5cc(Cl)ccc45)nn3)C/C(=C\\c3ccc(OC)c(OC)c3)C2=O)cc1OC", "growth", -85.3),
    ("CCNc1nc(S(=O)(=O)CC)nc2ccccc12", "growth", 91.7),
    ("CCCCCCCCCCCCCCCCCCNC(=O)[C@H]1CSC(c2cccs2)N1 (stereo not given in full)", "growth", -89.6),
    ("COc1ccc(-c2[nH]nc(N)c2-c2cc(OC)c3c(c2)OCO3)cc1", "growth", 30.9),
    ("Cc1ccc2[nH]c(=O)c3c(c2c1)Oc1ncn2nc(-c4ccco4)nc2c1C3c1ccc(Cl)cc1 (stereo not given)", "growth", 89.6),
    ("O=C(NS(=O)(=O)c1ccc2ccccc2c1)n1cc(-c2ccncc2)c(-c2ccc(Cl)c(O)c2)n1", "growth", 39.2),
    ("C=C[C@@H]1C[C@@H]2Cc3c(C)cc(C)cc3N1O2", "growth", 104),
]

###

# System: ACHN renal
# assay-name: NCI-60 one-dose screen, 48 h (100 = growth as untreated, 0 = no growth, -100 = all killed)
# measurement-setup: 10 µM unless noted
This is part of a sample that, as a whole, favours compounds with a hit. Of some 83,000 tested, about 20% had one in any assay.
result-type: growth (%)

# compound, numeric-result
rows = [
    ("ClC(Cl)c1nc(-c2cccnc2)n2nc(-c3ccccc3)cc2n1", -5.02),
    ("CC[N+](CC)=c1cc2oc3cc(N(C)C)ccc3nc-2cc1C", 73),
    ("Cc1ccc(NS(=O)(=O)c2cc(C)ccc2C)cc1", 70.7),
    ("COc1ccc(S(=O)(=O)Nc2cc(/C=C\\c3cc(OC)c(OC)c(OC)c3)cc(OC)c2OC)cc1", 26.4),
    ("Nc1nc(=O)c2ccccc2s1", 99.4),
    ("COc1cc(/C=C/c2cc(/C=C/c3ccc(O)c(OC)c3)n(C(N)=O)n2)ccc1O", -11.2),
    ("CN1C(=O)N(C)C2C1NN=c1s/c(=C\\C=C\\c3ccccc3)c(=O)n12 (centres undefined)", 63.8),
    ("C=C(C)[C@@H]1CC[C@]2(C(=O)O)CC[C@]3(C)[C@H](CC[C@@H]4[C@@]5(C)C[C@@H](CC#Cc6ccc(C(F)(F)F)cc6)[C@H](O)C(C)(C)[C@@H]5CC[C@]43C)[C@@H]12", 31.2),
    ("CN(C)c1ncnc2c1ccn2C1OC(CO)C(O)C1O (centres undefined)", 32.3),
    ("Fc1ccc(Nc2nc(NCCNc3ccnc4cc(Cl)ccc34)nc(N3CCOCC3)n2)cc1", 55.4),
    ("COc1cc(-c2nn(-c3cccc(NC(=O)c4ccc(N5CCOCC5)c(C(F)(F)F)c4)c3)cc2-c2ccncc2)ccc1Cl", 21.3),
    ("CCCCN(CCCC)C(=O)CC", 112),
    ("O=S(=O)(NCCNc1nccc(-c2c(-c3ccc(O)cc3)nc3sccn23)n1)c1cccc2ccccc12", 107),
    ("COc1cc2c(=O)n(C3CCCCCC3)c3c4cc[nH]c4ncc3c2cc1OC", 70.5),
    ("COc1ccc(CN2CCc3c(Sc4ccccc4)nc(N)nc3C2=O)c(OC)c1", 65),
    ("O=C(Nc1ccc2c(c1)OCO2)C(=O)c1c[nH]c2cc(F)ccc12", 44.9),
    ("CN1CCN(Cc2ccc(NC(=O)c3cncc(C#Cc4cnc(N)c5cnccc45)c3)cc2C(F)(F)F)CC1", -9.19),
    ("C=C1C(=O)O[C@H]2[C@H]1CC/C(Cn1cc(CNC(=O)/C=C/c3c[nH]c4ccccc34)nn1)=C\\CC[C@@]1(C)O[C@@H]21", 94),
    ("CCOC(=O)c1ccc2c(c1)c1c(C)c3cccnc3c(C)c1n2C", 29.8),
    ("O=[N+]([O-])c1ccc(/C=C/C2(CCl)OCCO2)cc1", 116),
    ("Nc1cccc(-c2nc3sccn3c2-c2ccnc(NCCCNS(=O)(=O)c3cccc4ccccc34)n2)c1", 31.6),
    ("COc1cc(/C=C/C(=O)N2CCN(C(=O)/C=C/c3cc(OC)c(OC)c(OC)c3)CC2)cc(OC)c1OC", 106),
    ("CCCCCCCCC(C)OC(=O)c1nn(C(C)=O)c2ccccc12 (centres undefined)", 107),
    ("CC(C)(C)c1[nH]nc2c1C(c1cc3ccccc3[nH]c1=O)Nc1cc(C(=O)Nc3ccc(Cl)cc3)ccc1N2 (centres undefined)", 84.2),
    ("Nc1cccc(Cl)c1N", 90.4),
    ("Cc1cc(C2=NNC(=O)Cc3cc4c(cc32)OCCO4)cc(C)c1N", 48.7),
    ("N/C(=N\\C(N)=N\\c1nc2ccccc2s1)c1ccncc1", 75.8),
    ("COc1c2occc2c(OC)c2c(=O)c(-c3cc(-c4ccc(F)cc4)c(C#N)c(N)n3)c(C)oc12", 41.8),
    ("CC1(c2ccc(Cl)cc2)OC(=O)CC(=O)O1", 98.5),
    ("CC(C)(C)OC(=O)NCCc1ccc(N=C=S)cc1", 80.3),
    ("O=C(NS(=O)(=O)c1ccc2ccccc2c1)n1cc(-c2ccncc2)c(-c2ccc(Cl)c(O)c2)n1", 49.6),
    ("COc1ccc(-c2nc3sccn3c2/C=C/C(=O)c2cc(F)cc(F)c2)cc1", 65.4),
    ("C=C1CCC2C3(C)COC(C)(C)OC3CCC2(C)C1C/C=C1/C(=O)OCC1Oc1ccccc1OC (centres undefined)", 79.9),
    ("COc1ccc(/C=C2/C(=O)NC(SCC(=O)N3CCN(c4cc5c(cc4F)c(=O)c(C(=O)O)cn5C4CC4)CC3)=NC2N)cc1OC (centres undefined)", 104),
    ("COc1cc(-c2nc(-c3nc4ccc(Cl)cc4[nH]3)cc3c2[nH]c2ccccc23)cc(OC)c1OC", 66.4),
    ("C=C1CC2(OC1=O)C(=O)N(CCCN1C(=O)C3(CC(=C)C(=O)O3)c3ccccc31)c1ccccc12 (centres undefined)", -17.9),
    ("COc1ccc(-c2nc(/C=N/Nc3cc(C)nc4ccc(Cl)cc34)c(C)o2)cc1", -100),
    ("c1cc2[nH]ncc2cc1-c1nc2ccc3[nH]ncc3c2c2c1CCC2", 23.8),
    ("COc1ccc(/C=C2\\Oc3cc(OCCCN4CCCC4)ccc3C2=O)c(OC)c1", 91.4),
]

###

# Test system: SF-539 CNS
# assay-name: NCI-60 one-dose screen, 48 h
# measurement-setup: 10 µM unless noted
Compounds without any hit were thinned out: in the full panel of roughly 83,000, 20% have a hit. The source made the active and inactive calls. Rule for the calls: active = growth percent below 10; inactive = the rest.
Classes used: t = active, f = inactive

# molecule, answer-label
data = [
    ("COc1cc(/C=C/c2cc(/C=C/c3ccc(O)c(OC)c3)n(C(N)=O)n2)ccc1O", "t"),
    ("COc1ccc(Nc2ncccc2C(=O)NCc2cn(Cc3cccc(Oc4ccccc4)c3)nn2)cc1", "f"),
    ("CCCCCCCCC(C)OC(=O)c1nn(C(C)=O)c2ccccc12 (stereo not given)", "f"),
    ("O=S(=O)(NCCCNc1nccc(-n2ccc3cccnc32)n1)c1cccc(C(F)(F)F)c1", "f"),
    ("CN1CCN(Cc2ccc(NC(=O)c3cncc(C#Cc4cnc(N)c5cnccc45)c3)cc2C(F)(F)F)CC1", "t"),
    ("CCc1cnc(=S)n(-c2ccccc2)c1", "f"),
    ("COc1cc2c(=O)n(C3CCCCCC3)c3c4cc[nH]c4ncc3c2cc1OC", "f"),
    ("CCOC(=O)/C(C#N)=C1/C(=O)Nc2ccccc21", "f"),
    ("COc1ccc(-c2nc(/C=N/Nc3cc(C)nc4ccc(Cl)cc34)c(C)o2)cc1", "t"),
    ("Cc1ccc(C(=O)NCCCNc2nccc(-n3ccc4cccnc43)n2)cc1", "f"),
    ("O=C(Nc1cccc(-n2cc(-c3ccncc3)c(-c3ccc(Cl)c(O)c3)n2)c1)Nc1cccc(C(F)(F)F)c1", "f"),
    ("COc1ccc(-c2ccc(C)n2-c2ccc(-c3nc4cc(Cl)ccc4s3)cc2)cc1", "f"),
    ("O=C1C(Cl)=C(Nc2ccccn2)C(=O)c2ccccc21", "f"),
    ("COc1ccc(Nc2nc(N)nc3c2CCN(Cc2ccc(OC)cc2OC)C3=O)cc1", "f"),
    ("O=C1/C(=C/c2ccc(Cl)cc2)CN(Cc2cn(CCNc3ccnc4cc(Cl)ccc34)nn2)C/C1=C\\c1ccc(Cl)cc1", "t"),
    ("CN(C)CCCN(c1nc(C(Cl)(Cl)Cl)ns1)c1nc(C(Cl)(Cl)Cl)ns1", "f"),
    ("Nc1nc(Nc2cc(Cl)cc(Cl)c2)nn1S(=O)(=O)c1ccc2ccccc2c1", "f"),
    ("CCN(CC)c1ccc(/C=C2\\Oc3ccc(O)c(I)c3C2=O)cc1", "f"),
    ("CCCCNC(=O)Oc1ccc(/C(=C(\\C)c2ccccc2)c2ccc(OCCN(CC)CC)cc2)cc1", "f"),
    ("O=C([O][Sn]([O]C(=O)c1ccccn1)([c]1ccccc1)[c]1ccccc1)c1ccccn1", "f"),
]
